Data provenance is PubChem BioAssay (NCI).

Test system: SK-MEL-2 melanoma
Test: NCI-60 one-dose screen, 48 h (100 = growth as untreated, 0 = no growth, -100 = all killed)
Conditions: 10 µM unless noted
About 83,000 compounds went through this panel and 20% of them were active in at least one assay; those are over-represented in the sample as a whole.
attributeMeasured: growth (%)
The reply should contain only the number, in %.

Please review the entries below; each comes with its answer.
[
  {
    "molecule": "Cn1c(=O)n(-c2ccc(C(C)(C)C#N)cc2)c2c3cc(-c4cnc5ccccc5c4)ccc3ncc21",
    "unitTag": "%",
    "reportedMeasurement": -42.4
  },
  {
    "molecule": "CCOC(=O)c1sc(N)nc1-c1ccccc1",
    "unitTag": "%",
    "reportedMeasurement": 95.9
  },
  {
    "molecule": "Cc1nnc(NC/C=C/c2ccccc2)s1",
    "unitTag": "%",
    "reportedMeasurement": 122
  },
  {
    "molecule": "O=C(CCc1ccc(O)cc1)N/N=C/c1cc(Br)ccc1O",
    "unitTag": "%",
    "reportedMeasurement": 80.7
  },
  {
    "molecule": "Cc1c(Cl)cccc1NCN1C(=O)c2ccccc2C1=O",
    "unitTag": "%",
    "reportedMeasurement": 103
  },
  {
    "molecule": "COc1cc(-c2nccc3cc4c(cc23)OCO4)cc(OC)c1OC",
    "unitTag": "%",
    "reportedMeasurement": 9.15
  },
  {
    "molecule": "COc1ccccc1C(C)=O",
    "unitTag": "%",
    "reportedMeasurement": 109
  },
  {
    "molecule": "Cc1ccc2nc3c(nc2c1)-c1cccc2cccc-3c12",
    "unitTag": "%",
    "reportedMeasurement": 107
  }
]

INPUT: Please tell me: growth of NC(=S)NS(=O)(=O)c1ccc(N)cc1 , system SK-MEL-2 melanoma?
OUTPUT: 109

INPUT: Please tell me: growth of CC1=NN(c2ccccc2)C(=O)C1C(=O)c1ccccc1 (configuration not stated) , system SK-MEL-2 melanoma?
OUTPUT: 96.6

* * *

Tested on: HCC-2998 colon
Assay: NCI-60 one-dose screen, 48 h (100 = growth as untreated, 0 = no growth, -100 = all killed)
Conditions: 10 µM unless noted
About 83,000 compounds went through this panel and 20% of them were active in at least one assay; those are over-represented in the sample as a whole.
attributeMeasured: growth (%)
The reply should contain only the number, in %.

Please review the entries below; each comes with its answer.
[
  {
    "molecule": "NC(=O)c1ccccc1OCC(O)CO (stereo not given)",
    "unitTag": "%",
    "reportedMeasurement": 114
  },
  {
    "molecule": "CCN(CC)CCCC(C)N(Cc1ccccc1)CC(O)c1ccc(Cl)cc1 (stereo not given)",
    "unitTag": "%",
    "reportedMeasurement": 101
  },
  {
    "molecule": "CNC(=O)c1cccnc1",
    "unitTag": "%",
    "reportedMeasurement": 110
  },
  {
    "molecule": "C[N+](C)(C)CN1C(=O)c2ccccc2C1=O",
    "unitTag": "%",
    "reportedMeasurement": 108
  },
  {
    "molecule": "C1CCCCNCCC1",
    "unitTag": "%",
    "reportedMeasurement": 112
  },
  {
    "molecule": "CCCCCN(CCCCC)CC(O)c1cc2c(c3ccccc13)CCCC2 (stereo not given)",
    "unitTag": "%",
    "reportedMeasurement": 13.1
  },
  {
    "molecule": "Cc1cc(C)c(N)c(Br)c1",
    "unitTag": "%",
    "reportedMeasurement": 112
  },
  {
    "molecule": "CC1=C(/C=C/C(C)=C/C=C/C(C)=C/C(=O)Nc2ccc(O)cc2)C(C)(C)CCC1",
    "unitTag": "%",
    "reportedMeasurement": 51
  },
  {
    "molecule": "N#CCCOc1ccccc1",
    "unitTag": "%",
    "reportedMeasurement": 110
  },
  {
    "molecule": "CCCCCCCCCCCCCCCCOc1ccc(C)cc1",
    "unitTag": "%",
    "reportedMeasurement": 105
  }
]

INPUT: Given COc1cc(Nc2nc3ccccc3nc2NS(=O)(=O)c2ccc(NC(=O)c3ccc(C)c(OC)c3)cc2)cc(OC)c1 , state its recorded growth.
OUTPUT: 68.5

INPUT: Given Fc1ccccc1Nc1n[nH]c(=S)s1 , state its recorded growth.
OUTPUT: 110

INPUT: Given O=C1NC(=O)C2(CCc3ccccc32)N1 (stereo not given) , state its recorded growth.
OUTPUT: 103

INPUT: Given Oc1ccccc1C=NCC1CCC(CN=Cc2ccccc2O)CC1 (stereo not given) , state its recorded growth.
OUTPUT: 101

INPUT: Given O=[N+]([O-])c1ccc(-n2[nH]nnc2=S)cc1 , state its recorded growth.
OUTPUT: 101

INPUT: Given O=C(CCc1ccc(O)cc1)N/N=C/c1cc(Br)ccc1O , state its recorded growth.
OUTPUT: 50.1

INPUT: Given Cc1n[nH]c(=O)n(/N=C\c2c[nH]c3ccccc23)c1=O , state its recorded growth.
OUTPUT: 108

INPUT: Given CN(C)CCC(=O)c1ccc(Cl)cc1 , state its recorded growth.
OUTPUT: 97.3
